- tested on: Nitric oxide synthase, inducible (Homo sapiens, UniProt P35228)
- Sequence (P35228 whole entry): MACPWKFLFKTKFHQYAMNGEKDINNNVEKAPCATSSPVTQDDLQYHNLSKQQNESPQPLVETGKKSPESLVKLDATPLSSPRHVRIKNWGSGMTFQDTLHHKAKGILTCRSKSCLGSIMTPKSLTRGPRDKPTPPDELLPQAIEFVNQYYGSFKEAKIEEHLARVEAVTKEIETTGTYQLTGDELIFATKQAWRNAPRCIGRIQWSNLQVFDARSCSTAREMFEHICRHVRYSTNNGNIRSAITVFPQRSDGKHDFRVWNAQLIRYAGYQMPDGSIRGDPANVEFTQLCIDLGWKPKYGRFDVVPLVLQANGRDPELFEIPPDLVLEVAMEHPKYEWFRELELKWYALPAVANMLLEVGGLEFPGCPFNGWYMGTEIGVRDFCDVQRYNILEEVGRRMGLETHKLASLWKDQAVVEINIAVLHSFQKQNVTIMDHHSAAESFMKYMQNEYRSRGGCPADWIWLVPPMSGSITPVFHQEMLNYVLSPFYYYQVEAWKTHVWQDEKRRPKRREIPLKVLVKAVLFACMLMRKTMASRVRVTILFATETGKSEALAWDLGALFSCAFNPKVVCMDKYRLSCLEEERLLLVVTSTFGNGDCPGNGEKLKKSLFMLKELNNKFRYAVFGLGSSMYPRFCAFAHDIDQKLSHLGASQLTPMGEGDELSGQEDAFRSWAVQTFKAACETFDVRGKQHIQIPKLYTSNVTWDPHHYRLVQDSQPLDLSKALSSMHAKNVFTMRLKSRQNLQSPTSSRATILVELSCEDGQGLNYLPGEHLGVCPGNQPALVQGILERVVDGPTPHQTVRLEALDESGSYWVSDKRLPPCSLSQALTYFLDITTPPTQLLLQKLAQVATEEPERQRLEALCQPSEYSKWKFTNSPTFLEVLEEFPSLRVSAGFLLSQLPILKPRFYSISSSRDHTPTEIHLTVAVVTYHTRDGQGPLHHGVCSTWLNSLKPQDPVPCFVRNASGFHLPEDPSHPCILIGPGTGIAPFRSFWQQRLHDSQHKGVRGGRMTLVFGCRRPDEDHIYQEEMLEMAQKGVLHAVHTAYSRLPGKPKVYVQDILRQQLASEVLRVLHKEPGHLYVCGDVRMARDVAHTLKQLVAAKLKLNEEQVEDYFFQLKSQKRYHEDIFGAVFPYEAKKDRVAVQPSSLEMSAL
- test method notes: Inhibitory activity against Inducible nitric oxide synthase at 100 uM concentration was determined
List of inhibition values.

Please review the following examples before continuing.
>>> result("CCOC(=O)[C@@H]1CCSCC/C(N)=N\\1")
"55.7%"
>>> result("CCOC(=O)[C@H]1CSCCC(N)=N1")
"70.9%"

Task item: Give measured inhibition for CCOC(=O)[C@@H]1CSCCC(N)=N1 (Nitric oxide synthase, inducible (Homo sapiens, UniProt P35228)).
Reply: 70.9%

Task item: Write down the reported inhibition (system: Nitric oxide synthase, inducible (Homo sapiens, UniProt P35228)) of CN1CCN=C(N)CC1
Reply: 32.1%

###

- tested on: Nitric oxide synthase, inducible (Homo sapiens, UniProt P35228)
- test method notes: Inhibition of inducible nitric oxide synthase
observed property: pIC50
Expect pIC50 as a plain number equal to -log10 of the molar concentration.

>>> quantitative_readout("NCCC1COCCC(N)=N1 (stereo not given)")
5.18

Task item: Query pIC50 for N=C1CCOCC(CC[N+](=O)[O-])N1 (stereo not given)
Reply: 6.01

Task item: Please give measured pIC50 of the following entry: N/C1=N/CCCSCC1
Reply: 4.88

Task item: Note down pIC50 recorded for C/C=C/CC1CCCCC(N)=N1 (stereo not given)
Reply: 6.05

Task item: Output measured pIC50 for this item: CCCCC1COCCC(N)=N1 (stereo not given)
Reply: 5.61

###

- tested on: Nitric oxide synthase 3 (Homo sapiens) (UniProt P29474)
- test method notes: Inhibitory activity against Endothelial nitric oxide synthase at 100 uM concentration was determined
observed property: inhibition (%)
Report the figure in % without appending any unit label.

Check out these entries, answers already filled in.
>>> quantitative_readout("CN1CCN=C(N)CC1")
6.42
>>> quantitative_readout("CCOC(=O)[C@H]1CSCCC(N)=N1")
13.9
>>> quantitative_readout("CCOC(=O)[C@@H]1CCSCC/C(N)=N\\1")
2.4

Task item: Determine its reported inhibition: CCOC(=O)[C@@H]1CSCCC(N)=N1
Reply: 8.66

###

- tested on: Nitric oxide synthase 3 (Homo sapiens, UniProt P29474)
- Sequence (P29474 whole entry): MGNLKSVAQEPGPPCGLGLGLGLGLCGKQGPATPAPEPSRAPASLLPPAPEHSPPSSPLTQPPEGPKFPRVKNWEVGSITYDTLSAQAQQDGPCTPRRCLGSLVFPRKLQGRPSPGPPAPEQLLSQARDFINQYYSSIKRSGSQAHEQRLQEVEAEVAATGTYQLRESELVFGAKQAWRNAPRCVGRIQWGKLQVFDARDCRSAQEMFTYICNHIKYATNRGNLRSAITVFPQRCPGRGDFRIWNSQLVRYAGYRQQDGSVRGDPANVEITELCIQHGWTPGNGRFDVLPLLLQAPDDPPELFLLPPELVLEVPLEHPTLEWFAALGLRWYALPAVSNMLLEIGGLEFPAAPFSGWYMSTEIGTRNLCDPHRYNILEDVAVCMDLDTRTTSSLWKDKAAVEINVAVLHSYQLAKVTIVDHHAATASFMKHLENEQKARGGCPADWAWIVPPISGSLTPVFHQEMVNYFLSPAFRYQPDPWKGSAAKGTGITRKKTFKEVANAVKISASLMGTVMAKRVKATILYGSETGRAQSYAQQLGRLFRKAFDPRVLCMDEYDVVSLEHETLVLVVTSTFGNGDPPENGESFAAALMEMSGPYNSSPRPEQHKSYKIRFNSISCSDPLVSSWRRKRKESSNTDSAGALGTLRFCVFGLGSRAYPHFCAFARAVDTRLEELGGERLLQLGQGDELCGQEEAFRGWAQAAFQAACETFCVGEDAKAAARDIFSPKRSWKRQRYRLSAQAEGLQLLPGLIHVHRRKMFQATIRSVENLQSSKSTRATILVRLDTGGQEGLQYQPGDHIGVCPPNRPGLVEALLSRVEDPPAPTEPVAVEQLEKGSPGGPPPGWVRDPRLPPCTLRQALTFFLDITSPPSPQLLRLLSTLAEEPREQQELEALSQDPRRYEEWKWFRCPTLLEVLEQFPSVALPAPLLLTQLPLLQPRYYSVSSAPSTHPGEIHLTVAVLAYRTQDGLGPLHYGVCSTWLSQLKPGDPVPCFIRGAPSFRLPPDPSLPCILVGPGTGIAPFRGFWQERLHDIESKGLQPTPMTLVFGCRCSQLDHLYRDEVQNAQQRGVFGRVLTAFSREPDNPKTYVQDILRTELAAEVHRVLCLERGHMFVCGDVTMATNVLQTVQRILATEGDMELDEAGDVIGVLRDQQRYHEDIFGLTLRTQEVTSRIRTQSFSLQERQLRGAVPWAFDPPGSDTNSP
The entries below come with measured log10(IC50) values attached.
// stored as log10 of IC50 expressed in µM

Here's what some known entries look like.
>>> quantitative_readout("CCCCC1COCCC(N)=N1 (stereo unspecified)")
3.13
>>> quantitative_readout("NCCC1CCCCC(N)=N1 (stereo unspecified)")
1.59
>>> quantitative_readout("C/C=C/CC1CCCCC(N)=N1 (stereo unspecified)")
2.31

Task item: Give log10(IC50); test system Nitric oxide synthase 3 (Homo sapiens, UniProt P29474); molecule N/C1=N/CCCSCC1
Reply: 2.27

Task item: Write log10(IC50) of C/C=C/CC1COCCC(N)=N1 (stereo unspecified) ; system used: Nitric oxide synthase 3 (Homo sapiens, UniProt P29474)
Reply: 2.85

Task item: Write down measured log10(IC50) (Nitric oxide synthase 3 (Homo sapiens, UniProt P29474)) for this molecule. NC1=NC(CC[N+](=O)[O-])CCCC1 (stereo unspecified)
Reply: 0.44
